# Ki per record follows
target of assay: human adenosine A1 receptor (Homo sapiens, UniProt P30542)
Construct: expressed in transfected cells; host or cells: HEK293 cells infected with BacMam (the same paragraph also labels the preparation CHO-hA1)
Sequence (P30542 whole entry): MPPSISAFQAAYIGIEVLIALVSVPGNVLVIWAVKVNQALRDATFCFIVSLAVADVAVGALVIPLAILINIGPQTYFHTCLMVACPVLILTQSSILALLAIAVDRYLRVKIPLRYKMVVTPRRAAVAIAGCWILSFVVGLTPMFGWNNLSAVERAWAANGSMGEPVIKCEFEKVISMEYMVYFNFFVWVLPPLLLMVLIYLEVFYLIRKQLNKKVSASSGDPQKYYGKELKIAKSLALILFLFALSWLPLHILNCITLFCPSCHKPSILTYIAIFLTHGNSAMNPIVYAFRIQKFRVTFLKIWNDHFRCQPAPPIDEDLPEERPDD
procedure details: Inhibition binding assay, human adenosine A1 receptor membranes, [3H]DPCPX
condition parameters: 1 nM [3H]DPCPX, 25° C., 1 h; IC50 converted to Ki with Cheng-Prusoff; read-out: A1 pKi (converted)
Give a bare numeral; the unit nM is implied.

Some entries whose results are on file:
| compound | assay metric | unit descriptor | value |
| --- | --- | --- | --- |
| Cc1cc(-c2c(-c3ccccc3)nc(N)n3c(=O)n(C4CSCc5ccccc54)nc23)cc(C)n1 (stereo not drawn) [Example 1-13] | Ki | nM | 158 |
| Nc1nc(Cn2nc3c(-c4cc(Cl)nc(CO)c4)c(-c4ccccc4)nc(N)n3c2=O)ccc1F [Example 1-70] | Ki | nM | 50.1 |

Q) Find Ki (human adenosine A1 receptor (Homo sapiens, UniProt P30542)) for the entry Cc1cc(-c2c(-c3ccccc3)nc(N)n3c(=O)n(CCN(C)C4CC4)nc23)cc(C)n1 [Example 2-19]
A) 398

Q) Check COc1cc(-c2c(-c3ccccc3)nc(N)n3c(=O)n(Cc4ccc(F)cn4)nc23)cc(C)n1 [Example 1-78] too.
A) 158

Q) And Cc1cc(-c2c(-c3ccccc3)nc(N)n3c(=O)n(Cc4ccc(F)cn4)nc23)cc(C)n1 [Example 1-2] ?
A) 316

Q) Ok, now Cc1cc(-c2c(-c3ccccc3)nc(N)n3c(=O)n(Cc4ccc(F)c(=O)[nH]4)nc23)cc(C)n1 [Example 1-8]
A) 316

Q) Then what about the compound COc1cc(-c2c(-c3ccccc3)nc(N)n3c(=O)n(Cc4ccc(F)c(N)n4)nc23)cc(CO)n1 [Example 1-64] ?
A) 158

Q) Field entry: Cc1cc(-c2c(-c3ccccc3)nc(N)n3c(=O)n(Cc4ccccc4CN(C)C)nc23)cc(C)n1 [Example 1-24]
A) 15.8

Q) // same read-out, input: COc1ncccc1Cn1nc2c(-c3cc(C)nc(CO)c3)c(-c3ccccc3)nc(N)n2c1=O [Example 1-57]
A) 126
